- Tested on: B55α interactors
- Method: MS analysis of B55α WT, V228A, I284A, S287A and D340A immunopurifications
- Format: binding, human
- Protocol Conditions: log2 ratio of interactor abundance, B55α I284A vs WT immunopurification, 4 replicates each, normalised to bait B55α
- Procedure: Standard cloning techniques were used throughout. Point mutations were introduced by whole plasmid polymerase chain reaction (PCR). All constructs were fully sequenced. […] Pull-downs were analyzed on a Q-Exactive Plus quadrupole or Fusion Orbitrap Lumos mass spectrometer (Thermo Fisher Scientific) equipped with Easy-nLC 1000 or […] (Thermo Fisher Scientific) and nanospray source (Thermo Fisher Scientific). […]
Measurement Name: log2_ratio I284_WT
Answers are plain numbers.

The following molecules have reported results that may help.
[
  {
    "Molecule": "ENSA_HUMAN (protein, UniProt O43768 2-121, looked up) Alpha-endosulfine: SQKQEEENPAEETGEEKQDTQEKEGILPERAEEAKLKAKYPSLGQKPGGSDFLMKRLQKGQKYFDSGDYNMAKAKMKNKQLPSAGPDKNLVTGDHIPTPQDLPQRKSSLVTSKLAGGQVE",
    "Observed Result": -0.42
  },
  {
    "Molecule": "IER2_HUMAN (protein, UniProt Q9BTL4 1-223, looked up) Immediate early response gene …: MEVQKEAQRIMTLSVWKMYHSRMQRGGLRLHRSLQLSLVMRSARELYLSAKVEALEPEVSLPAALPSDPRLHPPREAESTAETATPDGEHPFPEPMDTQEAPTAEETSACCAPRPAKVSRKRRSSSLSDGGDAGLVPSKKARLEEKEEEEGASSEVADRLQPPPAQAEGAFPNLARVLQRRFSGLLNCSPAAPPTAPPACEAKPACRPADSMLNVLVRAVVAF",
    "Observed Result": -0.03
  }
]

In: Quick check: log2_ratio I284_WT of PPME1_HUMAN (protein, UniProt Q9Y570 2-386, looked up) Protein phosphatase …: SALEKSMHLGRLPSRPPLPGSGGSQSGAKMRMGPGRKRDFSPVPWSQYFESMEDVEVENETGKDTFRVYKSGSEGPVLLLLHGGGHSALSWAVFTAAIISRVQCRIVALDLRSHGETKVKNPEDLSAETMAKDVGNVVEAMYGDLPPPIMLIGHSMGGAIAVHTASSNLVPSLLGLCMIDVVEGTAMDALNSMQNFLRGRPKTFKSLENAIEWSVKSGQIRNLESARVSMVGQVKQCEGITSPEGSKSIVEGIIEEEEEDEEGSESISKRKKEDDMETKKDHPYTWRIELAKTEKYWDGWFRGLSNLFLSCPIPKLLLLAGVDRLDKDLTIGQMQGKFQMQVLPQCGHAVHEDAPDKVAEAVATFLIRHRFAEPIGGFQCVFPGC ?
Out: -7.04
